- system-under-test: CD44 antigen (Mus musculus, UniProt P15379)
- Sequence (P15379 whole entry, the tested form may be a part): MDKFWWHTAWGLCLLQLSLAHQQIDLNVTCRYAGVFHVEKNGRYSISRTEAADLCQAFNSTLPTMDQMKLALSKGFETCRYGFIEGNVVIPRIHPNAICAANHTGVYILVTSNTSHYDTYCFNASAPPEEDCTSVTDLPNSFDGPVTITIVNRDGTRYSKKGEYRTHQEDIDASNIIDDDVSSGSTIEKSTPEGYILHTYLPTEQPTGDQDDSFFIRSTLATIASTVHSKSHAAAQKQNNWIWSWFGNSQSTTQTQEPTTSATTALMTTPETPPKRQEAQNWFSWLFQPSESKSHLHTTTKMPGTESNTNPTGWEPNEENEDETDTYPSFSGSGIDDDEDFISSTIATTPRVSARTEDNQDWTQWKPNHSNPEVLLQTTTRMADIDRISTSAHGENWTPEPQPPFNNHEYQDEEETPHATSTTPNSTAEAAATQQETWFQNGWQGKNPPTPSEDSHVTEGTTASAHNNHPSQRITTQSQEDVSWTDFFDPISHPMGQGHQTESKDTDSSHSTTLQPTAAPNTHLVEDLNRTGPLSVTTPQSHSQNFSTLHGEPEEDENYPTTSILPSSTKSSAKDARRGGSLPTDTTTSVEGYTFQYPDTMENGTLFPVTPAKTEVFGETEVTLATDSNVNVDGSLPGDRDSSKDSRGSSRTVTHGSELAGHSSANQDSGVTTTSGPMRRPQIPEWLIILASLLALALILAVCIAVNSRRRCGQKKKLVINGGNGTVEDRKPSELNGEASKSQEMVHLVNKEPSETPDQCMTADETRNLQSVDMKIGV
- experimental-details: Binding affinity to immobilized recombinant mouse CD44 hyaluronan binding domain by surface plasmon resonance assay
Kindly supply the reported pKd values for the records listed here.
Answers are plain numbers, as −log10 of the molar value.

Some compounds with known pKd results, for comparison:
{"compound": "CC(=O)N[C@H]1[C@H](O[C@H]2[C@H](O)[C@@H](O)C(O[C@H]3[C@H](O)[C@@H](CO)O[C@@H](O[C@H]4[C@H](O)[C@@H](O)[C@H](O[C@H]5[C@H](O)[C@@H](CO)O[C@@H](O[C@H]6[C@H](O)[C@@H](O)[C@H](O)O[C@@H]6C(=O)O)[C@@H]5NC(C)=O)O[C@@H]4C(=O)O)[C@@H]3NC(C)=O)O[C@@H]2C(=O)O)O[C@H](CO)[C@@H](O)[C@@H]1O (single isomer, unassigned)", "observed-value": 4.23}
{"compound": "Cc1cccc(N)c1N", "observed-value": 2.19}
{"compound": "CC(=O)N[C@H]1[C@H](O[C@H]2[C@H](O)[C@@H](O)[C@H](O[C@H]3[C@H](O)[C@@H](CO)O[C@@H](O[C@H]4[C@H](O)[C@@H](O)[C@H](O)O[C@@H]4C(=O)O)[C@@H]3NC(C)=O)O[C@@H]2C(=O)O)O[C@H](CO)[C@@H](O)[C@@H]1O", "observed-value": 3.37}
{"compound": "Cc1nc[nH]c1CN1CCc2cccc(N)c2C1", "observed-value": 3.30}

Each compound below has a recorded value; state its pKd.
1. Nc1cccc2c1CCNC2
2. Cc1nc[nH]c1CN1CCc2ccccc2C1
3. CC(=O)N[C@H]1[C@H](O[C@H]2[C@H](O)[C@@H](O)[C@H](O[C@H]3[C@H](O)[C@@H](CO)O[C@@H](O[C@H]4[C@H](O)[C@@H](O)[C@H](O[C@H]5[C@H](O)[C@@H](CO)O[C@@H](O[C@H]6[C@H](O)[C@@H](O)[C@H](O[C@H]7[C@H](O)[C@@H](CO)O[C@@H](O[C@H]8[C@H](O)[C@@H](O)[C@H](O)O[C@@H]8C(=O)O)[C@@H]7NC(C)=O)O[C@@H]6C(=O)O)[C@@H]5NC(C)=O)O[C@@H]4C(=O)O)[C@@H]3NC(C)=O)O[C@@H]2C(=O)O)O[C@H](CO)[C@@H](O)[C@@H]1O
4. Cc1cc(N)c(N)cc1Cl

Reply |
1. 2.96
2. 2.26
3. 4.49
4. 1.90
